Test: In vitro stability to trypsin promoting hydrolysis after 84 hr incubation time
Format: ADME
Details: read-out: Degradation
EXPERIMENTAL_ENDPOINT: metabolised at 84 h (%)

Examples with their reported metabolised at 84 h follow.
{"columns": ["COMPOUND", "metabolised at 84 h, %"],
 "data": [
  ["C[C@@H]1NC(=O)[C@H](CCCCN)NC(=O)CNC(=O)[C@H](CCCN=C(N)N)NC(=O)[C@@H]2CCCN2C1=O", 20],
  ["C[C@@H]1NC(=O)[C@H](CCCN=C(N)N)NC(=O)[C@@H]2CCCN2C(=O)[C@H](C)NC(=O)[C@H](CCCCN)NC1=O", 38]
]}

(A) C[C@@H]1NC(=O)[C@H](CCCCN)NC(=O)[C@H](CCCCN)NC(=O)[C@H](CCCN=C(N)N)NC(=O)[C@@H]2CCCN2C1=O
(B) C[C@@H]1NC(=O)[C@H](CCCCN)NC(=O)[C@H](CCC(N)=O)NC(=O)[C@H](CCCN=C(N)N)NC(=O)[C@@H]2CCCN2C1=O
Which value of metabolised at 84 h is numerically greater: that of A or that of B ? Refer to your chosen entry by its label in the reply.
A

----------
Test: In vitro stability to trypsin promoting hydrolysis after 2 hr incubation time
Type: ADME
Settings: read-out: Degradation
Where a SMILES comes first, the peptide text is derived from it.
EXPERIMENTAL_ENDPOINT: metabolised at 2 h (%)

{"columns": ["MOLECULE", "UNIT_TEXT", "metabolised at 2 h"],
 "data": [
  ["C[C@H](NC(=O)[C@@H]1CCCN1C(=O)[C@H](CCCN=C(N)N)NC(=O)CN)C(=O)N[C@@H](CCCCN)C(=O)O (H-GRPAK-OH)", "%", 77],
  ["C[C@H](NC(=O)[C@@H]1CCCN1C(=O)[C@H](CCCN=C(N)N)NC(=O)[C@@H](N)CCCCN)C(=O)N[C@@H](CCCCN)C(=O)O (H-KRPAK-OH)", "%", 70],
  ["C[C@H](NC(=O)[C@@H]1CCCN1C(=O)[C@H](CCCN=C(N)N)NC(=O)[C@@H](N)CCC(N)=O)C(=O)N[C@@H](CCCCN)C(=O)O (H-QRPAK-OH)", "%", 72],
  ["C[C@H](N)C(=O)N[C@@H](CCCN=C(N)N)C(=O)N1CCC[C@H]1C(=O)N[C@@H](C)C(=O)N[C@@H](CCCCN)C(=O)O (H-ARPAK-OH)", "%", 95]
]}

----------
Assay: In vitro stability to pepsin promoting hydrolysis after 8 hr incubation time
Type: ADME
Conditions: read-out: Degradation
Where a SMILES comes first, the peptide text is derived from it.
EXPERIMENTAL_ENDPOINT: metabolised at 8 h (%)

{"columns": ["COMPOUND", "EXPERIMENTAL_ENDPOINT", "UNIT_TEXT", "RESULT_VALUE"],
 "data": [
  ["C[C@H](N)C(=O)N[C@@H](CCCN=C(N)N)C(=O)N1CCC[C@H]1C(=O)N[C@@H](C)C(=O)N[C@@H](CCCCN)C(=O)O (H-ARPAK-OH)", "metabolised at 8 h", "%", 98],
  ["C[C@H](NC(=O)[C@@H]1CCCN1C(=O)[C@H](CCCN=C(N)N)NC(=O)CN)C(=O)N[C@@H](CCCCN)C(=O)O (H-GRPAK-OH)", "metabolised at 8 h", "%", 93],
  ["C[C@H](NC(=O)[C@@H]1CCCN1C(=O)[C@H](CCCN=C(N)N)NC(=O)[C@@H](N)CCCCN)C(=O)N[C@@H](CCCCN)C(=O)O (H-KRPAK-OH)", "metabolised at 8 h", "%", 95],
  ["C[C@H](NC(=O)[C@@H]1CCCN1C(=O)[C@H](CCCN=C(N)N)NC(=O)[C@@H](N)CCC(N)=O)C(=O)N[C@@H](CCCCN)C(=O)O (H-QRPAK-OH)", "metabolised at 8 h", "%", 92]
]}
